Data provenance is ChEMBL document CHEMBL4304758.

Reported inhibition by item:
Biological target: NAD-dependent protein deacetylase sirtuin-3, mitochondrial (Homo sapiens) (UniProt Q9NTG7)
Sequence (Q9NTG7 whole entry, the tested form may be a part): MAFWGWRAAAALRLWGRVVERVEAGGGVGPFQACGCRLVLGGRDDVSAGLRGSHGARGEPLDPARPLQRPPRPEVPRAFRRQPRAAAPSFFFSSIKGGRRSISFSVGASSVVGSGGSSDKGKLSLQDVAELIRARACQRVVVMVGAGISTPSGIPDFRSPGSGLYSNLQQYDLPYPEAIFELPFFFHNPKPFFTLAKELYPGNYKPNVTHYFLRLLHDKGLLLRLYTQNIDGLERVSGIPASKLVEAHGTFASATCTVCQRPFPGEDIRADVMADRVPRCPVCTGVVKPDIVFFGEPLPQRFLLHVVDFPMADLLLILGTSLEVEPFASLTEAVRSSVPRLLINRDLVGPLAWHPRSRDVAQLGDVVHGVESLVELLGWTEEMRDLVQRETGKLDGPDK
Test: Inhibition of recombinant human SIRT3 (118 to 399 residues) demyristoylase activity expressed in Escherichia coli at 1 uM using p53(Myr)-AMC as substrate measured after 3 hrs in presence of NAD+ and trypsin by fluorescence assay relative to control
Where a name gives a salt, the structure may show the parent alone. Residues, ends and D or L forms follow the SMILES beside them. *: point of attachment. Tfa = O=C(C(F)(F)F)*

molecule: C[C@H](NC(=O)[C@H](CCCCNC(=O)Cc1ccc(/N=N/c2ccc(OCCc3ccccc3)cc2)cc1)NC(=O)OCc1ccccc1)C(N)=O
tested_on: NAD-dependent protein deacetylase sirtuin-3, mitochondrial (Homo sapiens) (UniProt Q9NTG7)
inhibition, %: -0.13
--
molecule: CCCCCCCCCCCCCC(=O)NCCCC[C@H](NC(=O)OCc1ccccc1)C(=O)Nc1ccccc1
tested_on: NAD-dependent protein deacetylase sirtuin-3, mitochondrial (Homo sapiens) (UniProt Q9NTG7)
inhibition, %: 1.7
--
molecule: C[C@H](NC(=O)[C@H](CCCCNC(=O)Cc1ccc(/N=N/c2ccc(O)cc2)cc1)NC(=O)OCc1ccccc1)C(N)=O
tested_on: NAD-dependent protein deacetylase sirtuin-3, mitochondrial (Homo sapiens) (UniProt Q9NTG7)
inhibition, %: 2.6
--
molecule: C[C@H](NC(=O)[C@H](CCCCNC(=O)Cc1ccc(/N=N/c2ccc(OCc3ccccc3)cc2)cc1)NC(=O)OCc1ccccc1)C(N)=O
tested_on: NAD-dependent protein deacetylase sirtuin-3, mitochondrial (Homo sapiens) (UniProt Q9NTG7)
inhibition, %: 5.6
--
molecule: CC[C@H](C)[C@H](NC(=O)[C@H](CCCNC(=N)N)NC(C)=O)C(=O)N[C@@H](CCCCNC(=O)C(F)(F)F)C(=O)N[C@@H](CCCNC(=N)N)C(=O)N[C@@H](Cc1ccc(O)cc1)C(N)=O (Ac-RIK(Tfa)RY-NH2)
tested_on: NAD-dependent protein deacetylase sirtuin-3, mitochondrial (Homo sapiens) (UniProt Q9NTG7)
inhibition, %: 58

###

Reported inhibition by item:
Target: NAD-dependent protein deacetylase sirtuin-2 (Homo sapiens)
Test: Inhibition of recombinant human SIRT2 defatty-acylase activity at 2 uM using SFP3 as substrate measured at 5 mins interval for 60 mins in presence of NAD+ by fluorescence assay relative to control
Residues, ends and D or L forms follow the SMILES beside them. *: point of attachment. X2 = CN(C)c1ccc(/N=N/c2ccc(C(=O)*)cc2)cc1
value_kind: inhibition (%)

molecule: CC[C@H](C)[C@H](NC(=O)[C@@H](NC(=O)[C@H](CCCCNC(=O)c1ccc(/N=N/c2ccc(N(C)C)cc2)cc1)NC(=O)[C@H](CC(=O)O)NC(=O)[C@H](CO)NC(C)=O)[C@@H](C)O)C(N)=O (Ac-SDK(X2)TI-NH2)
value_kind: inhibition
unit: %
endpoint_result: 7.8

molecule: CCCCCCCCCCCCCC(=O)NCCCC[C@H](NC(=O)OCc1ccccc1)C(=O)Nc1ccccc1
value_kind: inhibition
unit: %
endpoint_result: 2.8

molecule: C[C@H](NC(=O)[C@H](CCCCNC(=O)Cc1ccc(/N=N/c2ccc(O)cc2)cc1)NC(=O)OCc1ccccc1)C(N)=O
value_kind: inhibition
unit: %
endpoint_result: 18

molecule: C[C@H](NC(=O)[C@H](CCCCNC(=O)Cc1ccc(/N=N/c2ccc(OCc3ccccc3)cc2)cc1)NC(=O)OCc1ccccc1)C(N)=O
value_kind: inhibition
unit: %
endpoint_result: 13

molecule: C[C@H](NC(=O)[C@H](CCCCNC(=O)Cc1ccc(/N=N/c2ccc(OCCc3ccccc3)cc2)cc1)NC(=O)OCc1ccccc1)C(N)=O
value_kind: inhibition
unit: %
endpoint_result: 1.4
